B1: Caulobacter ParB omega fusion; a variant is named by its letters at X, in order, B8GW30 (parent)
chain: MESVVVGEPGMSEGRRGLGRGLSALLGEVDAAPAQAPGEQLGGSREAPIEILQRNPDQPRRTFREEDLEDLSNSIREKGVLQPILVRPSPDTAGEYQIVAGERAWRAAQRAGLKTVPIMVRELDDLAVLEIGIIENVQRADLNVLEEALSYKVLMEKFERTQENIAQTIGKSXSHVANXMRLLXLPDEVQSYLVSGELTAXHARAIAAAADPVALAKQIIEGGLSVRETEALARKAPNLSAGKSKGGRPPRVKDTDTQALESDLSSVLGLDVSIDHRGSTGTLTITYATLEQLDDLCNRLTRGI

# Variants of: B1
# experiment: one-hybrid fitness for binding NBS DNA (the Noc-binding site; scaled: cognate 1, non-cognate 0); higher = stronger binding
# stated_conditions: with NBS DNA site
Over roughly 81,000 sequences, “one-hybrid fitness for binding NBS DNA” has its median near -0.1; the highest 2% begin near 0.36. What follows is part of a selection rich in the highest values, with near analogues and random picks from the rest.

mutation_descriptor	value_comparator	one-hybrid fitness for binding NBS DNA
PLIS	≤	0.2
VMRG	≤	0.2
HIDC	≤	0.2
TPTE	≤	0.2
KHGP	≤	0.2
ENIG	≤	0.2
RPRH	≤	0.2
RRNQ	=	0.313
RCRH	=	0.46
RSRH	=	0.335
RRNK	=	0.274
RRSQ	=	0.284
RRSC	=	0.291
GFNG	≤	0.2
